Test system: MALME-3M melanoma
METHOD_NOTES: NCI-60 one-dose screen, 48 h (100 = growth as untreated, 0 = no growth, -100 = all killed)
ASSAY_CONDITIONS: 10 µM unless noted
This is part of a sample that, as a whole, favours compounds with a hit. Of some 83,000 tested, about 20% had one in any assay.
Assign rule met whenever growth does not fall below 50%; assign rule not met whenever it does.

// below: answered molecules
[
  {
    "MOLECULE": "O=C(Cc1ccc(/C=C/C(=O)c2nccs2)cc1)Nc1ccccc1",
    "TARGET_DESC": "MALME-3M melanoma",
    "ASSIGNED_LABEL": "rule met"
  },
  {
    "MOLECULE": "Cc1nc(N)nc(N[C@@H](C)c2nc3cccc(NCc4ccc(C(=O)NO)cc4)c3c(=O)n2-c2ccccc2)n1",
    "TARGET_DESC": "MALME-3M melanoma",
    "ASSIGNED_LABEL": "rule not met"
  },
  {
    "MOLECULE": "C=C(C)[C@@H]1CC[C@]2(C(=O)N[C@@H](Cc3ccccc3)C(=O)OC)CC[C@]3(C)[C@H](CC[C@@H]4[C@@]5(C)CCC(=O)C(C)(C)[C@@H]5CC[C@]43C)[C@@H]12",
    "TARGET_DESC": "MALME-3M melanoma",
    "ASSIGNED_LABEL": "rule met"
  },
  {
    "MOLECULE": "COc1cc2nc(-c3ccc(C(F)(F)F)cc3)cc(OCCCN3CCOCC3)c2cc1OC",
    "TARGET_DESC": "MALME-3M melanoma",
    "ASSIGNED_LABEL": "rule not met"
  },
  {
    "MOLECULE": "S=c1cc(S)c2cc(Br)ccc2[nH]1",
    "TARGET_DESC": "MALME-3M melanoma",
    "ASSIGNED_LABEL": "rule met"
  }
]

Req: Quick check, growth >= 50%? CCC(CC)NCC(C)(C)O
Resp: rule met

Req: Quick check, growth >= 50%? O=C1c2ccc3c4c(ccc(c24)C(=O)N1CCCNCc1ccccc1)C(=O)N(CCCNCc1ccccc1)C3=O
Resp: rule not met

Req: Quick check, growth >= 50%? Cc1ccc(/C=N/NC(=O)CSc2nc3ccccc3c(=O)n2Cc2ccc(S(N)(=O)=O)cc2)cc1
Resp: rule met

Req: Quick check, growth >= 50%? Cc1cc2cc3ccc(N(C)C)cc3nc2cc1N
Resp: rule not met

Req: Quick check, growth >= 50%? COc1cc2oc(-c3cccc(C(=O)Nc4ccc5c(c4)OCO5)c3)cc(=O)c2c(O)c1OC
Resp: rule met
